Assay: Metabolic stability in liver microsomes
Format: in vitro ADME, human
Conditions: human, 1 µM, 0.5 mg protein/mL, read-out: In vitro t1/2
property measured: half-life at 1 µM

mol_smiles=O=C(Nc1ccc(C(F)(F)F)cc1)N[C@H](Cc1ccccc1)C(=O)O property_measured="half-life at 1 µM" value="> 185 min"

---

Reported recovery at 2 h, 5 µM values for the following molecules.
Experiment: Bi-directional permeability in Caco-2 cell line
Type: in vitro ADME
Settings: human, Caco-2, pH 7.4, after 2 hours; read-out: Recovery (%) BL-AP
property measured: recovery at 2 h, 5 µM

molecule=C[C@H]1O[C@@H](O[C@H]2[C@@H](O)C[C@H](O[C@H]3[C@@H](O)C[C@H](O[C@H]4CC[C@@]5(C)[C@H](CC[C@@H]6[C@@H]5C[C@@H](O)[C@]5(C)[C@@H](C7=CC(=O)OC7)CC[C@]65O)C4)O[C@@H]3C)O[C@@H]2C)C[C@H](O)[C@@H]1O property_measured="recovery at 2 h, 5 µM" value=99.2%
molecule=O=C(Nc1ccc(C(F)(F)F)cc1)N[C@H](Cc1ccccc1)C(=O)O property_measured="recovery at 2 h, 5 µM" value=97.7%
molecule="COCCc1ccc(OCC(O)CNC(C)C)cc1 (stereo not drawn)" property_measured="recovery at 2 h, 5 µM" value=99%
